target: anti-CD28 Fab (SEQ ID NOs: 202, 203); experiment: phage ELISA, Fab on plate, CD28 antigen as competitor;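 note: wells pre-incubated with CD28 antigen in blocking buffer (reference: blocking buffer only) before adding crude clonal phage supernatant, bound phage read with HRP-coupled anti-M13 antibody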
Sequence (VH, as listed by the source, chain 1 of 2): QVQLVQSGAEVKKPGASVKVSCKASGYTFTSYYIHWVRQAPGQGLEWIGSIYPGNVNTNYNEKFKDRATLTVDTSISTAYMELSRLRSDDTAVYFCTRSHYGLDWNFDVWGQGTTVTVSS
Sequence (VL, as listed by the source, chain 2 of 2): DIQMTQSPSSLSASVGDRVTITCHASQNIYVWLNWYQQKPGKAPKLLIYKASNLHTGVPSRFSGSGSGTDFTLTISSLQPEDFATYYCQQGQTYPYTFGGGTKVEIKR
measurement_type: Anti-CD28 Fab signal in the presence of CD28

binder="TCEDGFHFSWPECF [Phage-1123]" measurement=0.07
binder="TCSAGFSYKWPWCW [Phage-1117]" measurement=0.06
binder="TCAAGAVWTWPICF [Phage-1183]" measurement=0.05
binder="RCAAGAMWTWPACF [Phage-1179]" measurement=0.06
binder="RCAAVFSYTWPPCL [Phage-1171]" measurement=0.07
binder="SCAAGFDYGWPMCL [Phage-1197]" measurement=0.06
binder="SCAAGAHYKWPVCI [Phage-1100]" measurement=0.06
binder="TCAAGATYTWPTCF [Phage-1108]" measurement=0.05
binder="TCAAGAHYSWPFCM [Phage-1128]" measurement=0.07
binder="LCSAGAMYPWPVCL [Phage-1193]" measurement=0.08
binder="TCAAGAHYLWPHCL [Phage-1104]" measurement=0.12
binder="PCAAGAMWAWPYCL [Phage-1105]" measurement=0.05
binder="TCAAGANYSWPACL [Phage-1199]" measurement=0.08
binder="SCSAGATWAWPQCF [Phage-1194]" measurement=0.08
binder="TCSAGATYAWPACF [Phage-1121]" measurement=0.08
binder="SCSAVFSYRWPKCL [Phage-1195]" measurement=0.06
